- target: Apoptosis regulator Bcl-2 (Homo sapiens)
- Sequence (P10415 whole entry): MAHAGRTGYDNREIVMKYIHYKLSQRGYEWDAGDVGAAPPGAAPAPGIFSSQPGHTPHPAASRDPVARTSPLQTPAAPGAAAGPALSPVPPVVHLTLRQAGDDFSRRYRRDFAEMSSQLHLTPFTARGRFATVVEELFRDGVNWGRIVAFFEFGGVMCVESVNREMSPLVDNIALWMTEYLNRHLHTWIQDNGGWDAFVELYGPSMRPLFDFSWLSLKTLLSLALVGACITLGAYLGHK
- test-details: Displacement of FAM-Bid BH3 peptide from recombinant Bcl-2 (unknown origin) expressed in Escherichia coli BL21 after 10 mins by fluorescence polarization assay
// assign rule met if Ki falls strictly below 1 µM, else rule not met (ties count as rule not met)

[
  {
    "smiles-entry": "O=c1[nH]cnc2c(O)c(O)c(O)cc12",
    "cat": "rule not met"
  },
  {
    "smiles-entry": "Cc1ccc(O)c(Cn2c(-c3ccccc3)nc3c(O)c(O)c(O)cc3c2=O)c1",
    "cat": "rule met"
  },
  {
    "smiles-entry": "O=C1c2ccccc2C(=O)c2c1cc(O)c(O)c2O",
    "cat": "rule not met"
  },
  {
    "smiles-entry": "O=c1c2cc(O)c(O)c(O)c2nc(-c2ccccc2)n1Cc1ccccc1",
    "cat": "rule met"
  },
  {
    "smiles-entry": "CC(C)c1ccc(O)c(Cn2c(-c3ccccc3)nc3c(O)c(O)c(O)cc3c2=O)c1",
    "cat": "rule not met"
  },
  {
    "smiles-entry": "O=C(Nc1c(C(=O)NCCCc2ccccc2)cc(O)c(O)c1O)c1ccccc1",
    "cat": "rule not met"
  },
  {
    "smiles-entry": "CCCCNC(=O)c1cc(O)c(O)c(O)c1NC(=O)c1ccccc1",
    "cat": "rule not met"
  },
  {
    "smiles-entry": "O=C(Nc1c(C(=O)NCc2ccccc2)cc(O)c(O)c1O)c1ccccc1",
    "cat": "rule not met"
  }
]
